Cited source for all entries: patent US5395610A

# System: human KB epidermoid carcinoma cells, drug resistant KB V-1
# protocolText: In vitro cytotoxicity / potentiation of Actinomycin D in human KB epidermoid carcinoma cells, drug resistant KB V-1 (MTT)
# Assay type: cell-based
# experimentalContext: 10 μM potentiating agent + Act D 20 nM; 96 h; fraction of Act D alone
Structures can show the parent of a compound that is named as a salt.
Binned Synergism with Actinomycin D, normalized absorbance, Drug Resistant KB V-1, +ACT D; ranges: bottom range = under 0.04, center range = from 0.04 up to 0.3, top range = 0.3 and over

>>> group("Brc1ccc2c(c1)/C(=C\\CN1CCCC1)c1ccccc1CO2")
"center range"
>>> group("CN(C)CC/C=C1\\c2ccccc2COc2ccc(Br)cc21 [(B), hydrochloride]")
"bottom range"
>>> group("Brc1ccc2c(c1)/C(=C/CCN1CCCC1)c1ccccc1CO2")
"center range"
>>> group("CN(C)CC/C=C1/c2ccccc2COc2ccc(Br)cc21.Cl.Cl.Cl")
"center range"
>>> group("CN(C)CC/C=C1/c2ccccc2COc2cc(Br)ccc21 [(E)]")
"bottom range"
>>> group("CN(C)CCC=C1c2ccc(Br)cc2COc2ccccc21")
"center range"
>>> group("CN(C)CC/C=C1/c2cc(Br)ccc2COc2ccccc21")
"top range"
>>> group("Fc1ccc2c(c1)/C(=C\\CCN1CCCC1)c1ccccc1CO2")
"top range"
>>> group("Brc1ccc2c(c1)/C(=C/CCN1CCCC1)c1cc(Br)ccc1OC2")
"center range"
>>> group("Brc1cccc2c1OCc1ccccc1C2=CCN1CCCC1")
"bottom range"

Which Synergism with Actinomycin D, normalized absorbance, Drug Resistant KB V-1, +ACT D band matches CN(C)CC/C=C1/c2ccccc2COc2ccc(F)cc21 ? top range

Band assignment needed for Brc1ccc2c(c1)/C(=C\CCN1CCCC1)c1ccccc1CO2 please. top range

Band assignment needed for CN(C)CC/C=C1/c2ccccc2COc2c(Br)cccc21 please. bottom range

Field: class (Synergism with Actinomycin D, normalized absorbance, Drug Resistant KB V-1, +ACT D) — entry: CN(C)CC/C=C1\c2ccccc2COc2ccc(F)cc21 top range

Note: place this molecule into its band. Item: Brc1ccc2c(c1)/C(=C/CCN1CCCC1)c1ccccc1OC2 top range

Hello team, could you let me know which band the following molecule falls into: Brc1ccc2c(c1)/C(=C\CCN1CCCC1)c1cc(Br)ccc1OC2 [(R)] bottom range

Pick a category. Item: Fc1ccc2c(c1)/C(=C/CCN1CCCC1)c1ccccc1CO2 [(S)] top range

###

Listing: Synergism with Actinomycin D, normalized absorbance, Drug Resistant KB V-1, +ACT D of selected compounds
# Test system: human KB epidermoid carcinoma cells, drug resistant KB V-1
# protocolText: In vitro cytotoxicity / potentiation of Actinomycin D in human KB epidermoid carcinoma cells, drug resistant KB V-1 (MTT)
# Type: cell-based
# experimentalContext: 1 μM potentiating agent + Act D 20 nM; 96 h; fraction of Act D alone
Output: the number by itself.

>>> valueobserved("Fc1ccc2c(c1)/C(=C\\CCN1CCCC1)c1ccccc1CO2")
0.92
>>> valueobserved("Brc1ccc2c(c1)/C(=C\\CCN1CCCC1)c1cc(Br)ccc1OC2 [(R)]")
0.90
>>> valueobserved("Brc1ccc2c(c1)/C(=C\\CN1CCCC1)c1ccccc1CO2")
0.77
>>> valueobserved("CN(C)CC/C=C1/c2ccccc2COc2ccc(Br)cc21.Cl.Cl.Cl")
0.99
>>> valueobserved("Brc1ccc2c(c1)/C(=C/CCN1CCCC1)c1ccccc1CO2")
0.88

Field request: Synergism with Actinomycin D, normalized absorbance, Drug Resistant KB V-1, +ACT D | item: CN(C)CC/C=C1/c2ccccc2COc2c(Br)cccc21 0.78

# Synergism with Actinomycin D, normalized absorbance, Drug Resistant KB V-1, +ACT D lookup, item Brc1ccc2c(c1)/C(=C\CCN1CCCC1)c1ccccc1CO2 0.91

Given the compound Brc1cccc2c1OCc1ccccc1C2=CCN1CCCC1 , what is its reported Synergism with Actinomycin D, normalized absorbance, Drug Resistant KB V-1, +ACT D? 0.74

I'd like to know its Synergism with Actinomycin D, normalized absorbance, Drug Resistant KB V-1, +ACT D. The compound in question is CN(C)CC/C=C1/c2ccccc2COc2ccc(F)cc21 0.83

I'd like to know its Synergism with Actinomycin D, normalized absorbance, Drug Resistant KB V-1, +ACT D. The compound in question is CN(C)CC/C=C1\c2ccccc2COc2ccc(F)cc21 0.72
